# testName: NCI Yeast Anticancer Drug Screen. Data for the bub3 strain (AID 167)
# testParameters: S. cerevisiae bub3 mutant strain, at 50.0 µM, stronger effect = higher value
The panel holds about 79,000 compounds, 15% with a hit somewhere; the sample as a whole holds those more often.
Note to self: class labels come from recorded growth inhibition, ranges listed here: low range = under 40%, mid range = from 40% up to 90%, high range = 90% and over

Please review the following examples before continuing.
| compound | category |
| --- | --- |
| CC(=O)Oc1cc2c(cc1OC(C)=O)OCC(c1ccccc1)C2 (centres undefined) | high range |
| CCCCCCN(CCCCCC)CCC(=O)c1ccc2cc(Br)c3ccccc3c2c1 | high range |
| CC(=O)C(=Cc1ccc(C=C(C(C)=O)C(C)=O)cc1)C(C)=O | low range |
| CC(C)(C)NC1=NC(C(F)(F)F)(C(F)(F)F)NC(=O)N1 | mid range |

Now examine the next entry.
Consider CN(C)CCC(/C=C/c1ccccc1)=N\Nc1ccc(Cl)cc1Cl . To which growth inhibition class does it belong?
high range
